For each entry below, report its apparent KD of MS2 coat protein value.
# System: MS2 coat protein
# Test Protocol: apparent KD of MS2 coat protein; designed switch direction (-1 OFF switch, 1 ON switch): -1; higher = weaker reporter binding
# Run Parameters: input ligand: microRNA oligo, concentration not stated
The reply should be a number in µM, with the unit left off.

Specify measured apparent KD of MS2 coat protein for AUAAUACAUGUAGGAUAUCUGCACGUUUAGUGCAGAGAAGGACAUGAGGAUCACCCAUGUAAUUAAGAUCAAUUAUUAAAUUAU [ENG1/3-D2] (Eterna round: R96, puzzle: Exclusion NG 1) .
0.0547

Specify measured apparent KD of MS2 coat protein for UUAAAUCAUGUAGGAUAUGCGUGGAGAAGCUAUGCAGAAGGACAUGAGGAUCACCCAUGUGCUUCCGUCUGAGAACAGACGGUA [Mat - Exclusion NG 1 - Mod of JL - D13] (Eterna round: R96, puzzle: Exclusion NG 1) .
0.0499

Specify measured apparent KD of MS2 coat protein for UAAGUUUUGGUAGGAUAUACUUUAAAUUUCUCUAUCCAUACAUGAGGAUCACCCAUGUUUACAUUGUAGAAGGACCUUUAUGUU [JR_ExcNG2_Sub057] (Eterna round: R96, puzzle: Exclusion NG 2) .
0.0302

Specify measured apparent KD of MS2 coat protein for CCUAGACAUGAGGAUCACCCAUGUGAGGAUAUGAUGCGAUCGUCGAAAGACGAUAGCAUCAGAAGGCACAUAUG [Fiskers Ex 1 - 5] (Eterna round: R96, puzzle: Exclusion 1) .
0.0342

Specify measured apparent KD of MS2 coat protein for AAGAGUGAGCGAGGAUAUUGAUUUUGGCGUAGUCAAGAAGGCGCGUACAUGAGGAUCACCCAUGUGCUCAGAGCGCAAAAGGGU [Gequon] (Eterna round: R96, puzzle: Exclusion NG 1) .
0.0498

* * *

For each entry below, report its apparent KD of MS2 coat protein value.
# Test system: MS2 coat protein
# Test Protocol: apparent KD of MS2 coat protein; designed switch direction (-1 OFF switch, 1 ON switch): -1; higher = weaker reporter binding
# Run Parameters: input ligand: FMN 200 uM

Look up and report apparent KD of MS2 coat protein, with MS2 coat protein as system, for UAUCUACAUGUAGGAUAUGCGUGGCGAAGCUAUGCAGAAGGACAUGAGGAUCACCCAUGUUUUAGCGUCUGCGUACAGAUGCGU [JL ENG1 1.48] (Eterna round: R96, puzzle: Exclusion NG 1)
149 nM

Look up and report apparent KD of MS2 coat protein, with MS2 coat protein as system, for CACCGUUACAUAGGAUAUGUUACAUGAGGAUCACCCAUGUAAUAAAUGAGAAUUUCGAAUGUAAUACAGAAGGAUGGAAUCGGC [Ostracism 71 - Jieux - Exclusion NG 2] (Eterna round: R96, puzzle: Exclusion NG 2)
28.7 nM

Look up and report apparent KD of MS2 coat protein, with MS2 coat protein as system, for GUUCCACGAGGAUAUGAGGGCAACUACAUGAGGAUCACCCAUGUGAGCGAUCCUCAGAAGUCAGAAGGCGUGGAGA [Eternabot (L2) Solution 77] (Eterna round: R97, puzzle: Exclusion 5)
63.7 nM

Look up and report apparent KD of MS2 coat protein, with MS2 coat protein as system, for UUUACAAGCUAUAGAUCCCACAUGAGGAUCACCCAUGUUGCUGCCGUGAGGUAGCUUUUAACUAUUGCUCGUCUUAU [JL TOV1 3.36] (Eterna round: R97, puzzle: Sensor, turn-off variant 1)
150 nM

Look up and report apparent KD of MS2 coat protein, with MS2 coat protein as system, for CUCUAGAAAGGAUAUACAUGAGGAUCACCCAUGUCCACGCCAUAACCGAGUGCCAUCUGUAGAAGGUUCAGAGU [Eternabot (L1) Solution 96] (Eterna round: R97, puzzle: Exclusion 3)
52.5 nM

Look up and report apparent KD of MS2 coat protein, with MS2 coat protein as system, for AAGCAGCGAGGAUAUGCUUGCGCGUGUCCUAGUUGAAAUAAACUUGAGGAUCACCCAAGUAGAAGGCGCAACCC [EX2 #42] (Eterna round: R97, puzzle: Exclusion 2)
197 nM

Look up and report apparent KD of MS2 coat protein, with MS2 coat protein as system, for UCUCAGUUAGGAUAUUUAAUGUGCCGUGAGGACACGCCUUUGAAGAAGGGACAUGAGGAUCACCCAUGUGAGUA [Eternabot (L2) Solution 44] (Eterna round: R97, puzzle: Exclusion 4)
47.3 nM

Look up and report apparent KD of MS2 coat protein, with MS2 coat protein as system, for ACAAGCUUUUUCAUAUCUUACAUGAGGAUCACCCAUGUUUUUGCAAUUAUGUUUGGGCUCUUUUGAGCUCGUCUUAU [JR_STOV1_Sub048] (Eterna round: R97, puzzle: Sensor, turn-off variant 1)
13.5 nM

Look up and report apparent KD of MS2 coat protein, with MS2 coat protein as system, for GCAGCAAAAUUCCAUAAAACCACAUGAGGAUCACCCAUGUCUCAGGAUAUGGUCUGGAUUACAGGCCAGAAGGGAGAAAGCUGC [Eli exng3 - 058] (Eterna round: R96, puzzle: Exclusion NG 3)
14.6 nM

Look up and report apparent KD of MS2 coat protein, with MS2 coat protein as system, for UUAAUUAAUUUAUUAGAUCCUCACAUGAGGAUCACCCAUGUGCAGGAUAUCAGCUCGUGUAGAGCUGAGAAGGGCACUAUAAAU [ExNG3/10-B3] (Eterna round: R96, puzzle: Exclusion NG 3)
29.8 nM

Look up and report apparent KD of MS2 coat protein, with MS2 coat protein as system, for GAGGCCAUAGGAUAUCUGUUACGGGACAUGAGGAUCACCCAUGUACUGGCAAGUCCUCGGAGAGAAGGAUGACUCU [Eternabot (L1) Solution 68] (Eterna round: R97, puzzle: Exclusion 5)
21.9 nM

Look up and report apparent KD of MS2 coat protein, with MS2 coat protein as system, for AGAUCUAUCACGAAAGUGAUAGAUCAAAUUAGUUUUUAAACAUGAGGAUCACCCAUGUCCUAGUGGGCUAGUCUUAU [Mat - Sensor v2 - var 2 - Mod - D135] (Eterna round: R96, puzzle: Sensor v2, turn-off variant 2)
236 nM

Look up and report apparent KD of MS2 coat protein, with MS2 coat protein as system, for CUAUGGCAAGGAUAUACGUAUCAUGUGACGAUAGCUCAAGAACAUGAGGAUCACCCAUGUAGAAGGUGCGGAGA [Eternabot (L1) Solution 90] (Eterna round: R97, puzzle: Exclusion 2)
54.2 nM

Look up and report apparent KD of MS2 coat protein, with MS2 coat protein as system, for AGCUUUUUGCUCGUCUUAUACAUGAGGAUCACCCAUGUAUUGGACCACAUCGAUAGAUGUGGACCAAGAAGCAUGGU [Omdei Mir OFFv1 C3] (Eterna round: R97, puzzle: Sensor, turn-off variant 1)
46.8 nM

Look up and report apparent KD of MS2 coat protein, with MS2 coat protein as system, for AAUGCCGGUGUCAGGAUAUCCGGAGGGAAACCUCCGGAGAAGGGACAUGAGGAUCACCCAUGUAUGUAACCUGC [AK-MS2ROC-r4-Bmoexclusion4-6] (Eterna round: R97, puzzle: Brourd's mod of Exclusion 4)
24.9 nM

Look up and report apparent KD of MS2 coat protein, with MS2 coat protein as system, for UACCUGUAGGUAGGAUAUCAUUGCGAUUAGCUAUGAGAAGGACCACAUGAGGAUCACCCAUGUCUACUCAGGAACCGAAAGGUC [Fiskers ExNg1 - 1] (Eterna round: R96, puzzle: Exclusion NG 1)
13 nM

Look up and report apparent KD of MS2 coat protein, with MS2 coat protein as system, for UAUUAGCAAGCAAGAUCCCACAUGAGGAUCACCCAUGUGCUCGUCUUAAGCCCAGAAUUACUGGGCGCUCGUCUUAU [Winner reversed engineered 22] (Eterna round: R97, puzzle: Sensor, turn-off variant 1)
30.3 nM

Look up and report apparent KD of MS2 coat protein, with MS2 coat protein as system, for CGUCAGUCAGGAUAUACUUACGUAGACAUGAGGAUCACCCAUGUGACGUGGGACUGGUGAGUAGAAGGGACGAACA [EX5 #76] (Eterna round: R97, puzzle: Exclusion 5)
27.3 nM

// provenance: the supplement of paper PMC9170038
